Ref: PubChem BioAssay AID588727

Assay: inhibitors of VEEV TC-83 cytopathic effect, confirmation, Vero cells (AID 588727)
Settings: VEEV TC-83 cytopathic effect inhibition, at 20 µM; active compounds read high unless noted
About 450 (0.13%) of roughly 350,000 compounds were called active. A selection follows. Measured potencies and affinities stand elsewhere.
Measured inhibition of individual entries
Your answer should be a plain number; it is taken to be in %.

C=CCN=c1scc(-c2ccccc2)n1/N=C/c1ccccn1 ... 12
C=CCN=c1scc(-c2ccc(F)cc2)n1/N=C/c1ccccn1 ... 7.98
CCCc1nnc(NC(=O)CNc2ccc(F)cc2)s1 ... 1.71
CCCOc1ccc(C(=O)Nc2cc(S(=O)(=O)N3CCOCC3)ccc2N2CCOCC2)cc1 ... 6.81
O=C(COc1ccccc1)NNC(=S)NC(=O)c1ccccc1 ... 52.2

Kindly review the next compound as well.
In: Give the measured inhibition of `COc1ccc(C(=O)NNC(=S)NC(=O)c2ccc(OC)cc2)cc1` .
Out: 2.82
